# Assay Info: Metabolic stability in rat liver microsomes assessed as parent compound remaining at 1 uM after 30 mins in presence of NADPH by LC-MS/MS analysis
# Format: ADME, microsome
# Setup Conditions: read-out: Stability
Observed Property: remaining at 0.5 h, 1 µM

[
  {
    "Compound": "Cc1cc(SC(Cc2ccccc2)c2ccc(-c3ccc(C(F)(F)F)cc3)cc2)ccc1OCC(=O)O (stereo unspecified)",
    "Obs Value": "> 100%"
  }
]

###

# Assay Info: Clearance in Sprague-Dawley rat at 1 mg/kg, iv by LC-MS/MS analysis
# Assay type: ADME, organism-based
# Setup Conditions: in vivo

[
  {
    "Compound": "Cc1cc(SC(Cc2ccccc2)c2ccc(-c3ccc(C(F)(F)F)cc3)cc2)ccc1OCC(=O)O (stereo unspecified)",
    "clearance, mL/min/kg": 4
  }
]
